So I've got a bunch of substances here, and I need their % Sod1 Remaining values.
# System: Sod1 mRNA
# Assay notes: Sod1 mRNA knockdown in mouse lung after intranasal administration (RT-qPCR)
# Type: in vivo
# Measurement setup: single intranasal 10 mg/kg, Day 10, relative to PBS
In the oligonucleotide strings, read from the 5' end, every base follows the letter of its sugar. An asterisk marks phosphorothioate; unmarked linkages are phosphodiester. Other units and linkages are bracketed, terminal groups are in braces. A string of capitals states the bases alone. {Q410} = αvβ6 integrin ligand conjugate, (S,R) stereochemistry, phosphorothioate-linked; {Q411} = αvβ6 integrin ligand conjugate, (R,R) stereochemistry variant; {L352} = αvβ6 integrin ligand conjugate, (S,R) stereochemistry; {L353} = αvβ6 integrin ligand conjugate, (S,S) stereochemistry; {L354} = αvβ6 integrin ligand conjugate; {VP} = (E)-vinylphosphonate; m = 2'-O-methyl; f = 2'-fluoro
Give the value in % but do not write % after it.

# get_value(readout= % Sod1 Remaining, system= Sod1 mRNA) for AD-1481901.1: "3′,5′ is better than the triple (AD-1481899 vs AD-1481901 as matched pair of (S,R) stereochemistry)" (sense {Q410}*mC*mAmUmUmUmUfAmAfUfCfCmUmCmAmCmUmCmUmAmA*mA*{L352}; antisense {VP}-mU*fU*mUmAmGfAmGfUfGmAmGmGmAfUmUfAmAmAmAmUmG*mA*mG; siRNA)
35.9

Can you look up % Sod1 Remaining on Sod1 mRNA for AD-1481904.1: dsRNA agent targeting Sod1 conjugated to αvβ6 ligand: "3′-monos (AD-1481903 (S,R) vs AD-1481904 (S,S))" (sense mC*mA*mUmUmUmUfAmAfUfCfCmUmCmAmCmUmCmUmAmA*mA*{L353}; antisense {VP}-mU*fU*mUmAmGfAmGfUfGmAmGmGmAfUmUfAmAmAmAmUmG*mA*mG) ?
49.8

Look up % Sod1 Remaining with Sod1 mRNA for this substance: AD-1481902.1: "inhibition of Sod1 mRNA expression in mouse quadriceps, heart, liver, and lung 21 days after a single 2 mg/kg intravenous dose" (sense {Q411}*mC*mAmUmUmUmUfAmAfUfCfCmUmCmAmCmUmCmUmAmA*mA*{L353}; antisense {VP}-mU*fU*mUmAmGfAmGfUfGmAmGmGmAfUmUfAmAmAmAmUmG*mA*mG)
51.2

Lab request: please report % Sod1 Remaining under test system Sod1 mRNA for AD-1481899.1: "3′,5′ is better than the triple (AD-1481899 vs AD-1481901 as matched pair of (S,R) stereochemistry)" (sense mC*mA*mUmUmUmUfAmAfUfCfCmUmCmAmCmUmCmUmAmA*mA*{L354}; antisense {VP}-mU*fU*mUmAmGfAmGfUfGmAmGmGmAfUmUfAmAmAmAmUmG*mA*mG; siRNA)
52.4

----------
Provide the reported pEC50 of each item.
# Assayed target: recombinant human αvβ6 (Homo sapiens, UniProt P06756+P18564, DEL708-788)
# Construct: purchased R&D Systems 3817AV050
# Sequence (P06756 31-992 limits assumed, stated change not applied): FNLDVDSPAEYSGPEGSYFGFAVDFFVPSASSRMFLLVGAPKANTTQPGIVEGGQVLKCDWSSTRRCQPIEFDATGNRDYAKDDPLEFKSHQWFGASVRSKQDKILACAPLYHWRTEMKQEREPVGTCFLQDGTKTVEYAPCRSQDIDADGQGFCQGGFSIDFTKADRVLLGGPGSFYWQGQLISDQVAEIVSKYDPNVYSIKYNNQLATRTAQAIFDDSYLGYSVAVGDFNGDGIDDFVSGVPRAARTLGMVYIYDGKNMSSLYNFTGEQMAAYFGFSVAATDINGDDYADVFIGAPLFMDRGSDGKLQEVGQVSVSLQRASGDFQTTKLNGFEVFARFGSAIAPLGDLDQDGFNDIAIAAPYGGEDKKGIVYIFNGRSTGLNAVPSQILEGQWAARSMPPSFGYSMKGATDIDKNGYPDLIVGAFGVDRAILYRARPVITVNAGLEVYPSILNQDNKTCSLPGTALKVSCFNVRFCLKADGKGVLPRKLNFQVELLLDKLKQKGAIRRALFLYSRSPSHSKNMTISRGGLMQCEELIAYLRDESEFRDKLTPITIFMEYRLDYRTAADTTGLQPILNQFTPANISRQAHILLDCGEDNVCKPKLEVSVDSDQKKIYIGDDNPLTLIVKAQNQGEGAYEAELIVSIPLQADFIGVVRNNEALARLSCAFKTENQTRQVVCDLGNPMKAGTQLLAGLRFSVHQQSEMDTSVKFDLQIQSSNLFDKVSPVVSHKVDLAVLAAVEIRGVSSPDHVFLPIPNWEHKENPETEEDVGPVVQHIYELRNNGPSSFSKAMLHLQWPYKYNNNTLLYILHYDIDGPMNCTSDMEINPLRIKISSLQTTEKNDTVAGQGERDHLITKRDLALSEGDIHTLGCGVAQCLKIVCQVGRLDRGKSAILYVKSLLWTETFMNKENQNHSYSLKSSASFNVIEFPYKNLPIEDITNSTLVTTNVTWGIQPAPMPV
# Sequence (P18564 22-707 limits assumed, stated change not applied): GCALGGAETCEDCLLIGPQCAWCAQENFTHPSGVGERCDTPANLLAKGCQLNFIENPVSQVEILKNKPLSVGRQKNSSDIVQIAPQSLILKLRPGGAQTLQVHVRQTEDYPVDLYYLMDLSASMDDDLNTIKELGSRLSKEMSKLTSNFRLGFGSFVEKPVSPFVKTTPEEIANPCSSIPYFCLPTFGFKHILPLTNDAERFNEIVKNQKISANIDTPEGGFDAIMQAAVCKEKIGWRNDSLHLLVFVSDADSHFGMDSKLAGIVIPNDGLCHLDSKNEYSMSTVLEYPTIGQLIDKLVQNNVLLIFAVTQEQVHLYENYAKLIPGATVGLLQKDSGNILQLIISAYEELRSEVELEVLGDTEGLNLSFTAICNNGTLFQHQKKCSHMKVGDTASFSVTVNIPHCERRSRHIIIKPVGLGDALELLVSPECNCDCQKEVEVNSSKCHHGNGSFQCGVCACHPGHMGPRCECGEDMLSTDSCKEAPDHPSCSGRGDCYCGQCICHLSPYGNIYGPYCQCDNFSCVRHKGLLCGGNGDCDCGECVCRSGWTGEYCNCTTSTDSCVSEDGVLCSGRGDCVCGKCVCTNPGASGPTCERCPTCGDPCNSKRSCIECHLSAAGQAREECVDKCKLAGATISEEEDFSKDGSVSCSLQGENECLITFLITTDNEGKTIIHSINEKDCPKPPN
# Assay notes: ELISA displacement assay (αvβ6 binding to LAP/TGF1b)
# Measurement setup: recombinant human αvβ6 vs coated human LAP/TGF1b
# Method: ELISA plates were coated with 0.6 ug/mL recombinant human LAP/TGF1b (R&D Systems 246LP025) in carbonate buffer (pH 9.6) overnight at 4 C. […] Samples were incubated with TMB substrate (Thermo 34024) for 15 minutes, reaction was quenched with 3 M sulfuric acid, and absorbance was measured at 450 nm. Percent binding inhibition was calculated by normalizing to a maximum value obtained from no-competitor samples and a minimum value obtained from no-competitor-no-integrin samples. […]
pEC50: −log10 of the molar value. In the oligonucleotide strings, read from the 5' end, every base follows the letter of its sugar. An asterisk marks phosphorothioate; unmarked linkages are phosphodiester. Other units and linkages are bracketed, terminal groups are in braces. A string of capitals states the bases alone. {L373Z511} = αvβ6 integrin ligand conjugate variant; {L373Z512} = αvβ6 integrin ligand conjugate variant; {L373Z513} = αvβ6 integrin ligand conjugate variant; {L354} = αvβ6 integrin ligand conjugate; {VP} = (E)-vinylphosphonate; m = 2'-O-methyl; f = 2'-fluoro

Would you kindly share the measured pEC50 for AD-2639646 (sense mU*mU*mGmGmGmCfAmAfAfGfGmUmGmGmAmAmAmUmGmA*mA*{L373Z512}; antisense {VP}-mU*fU*mCmAmUfUmUfCfCmAmCmCmUfUmUfGmCmCmCmAmA*mG*mU; siRNA) ?
7.00 to 8.00

// returns reported pEC50 for input AD-2639645 (sense mU*mU*mGmGmGmCfAmAfAfGfGmUmGmGmAmAmAmUmGmA*mA*{L373Z511}; antisense {VP}-mU*fU*mCmAmUfUmUfCfCmAmCmCmUfUmUfGmCmCmCmAmA*mG*mU; siRNA)
< 7.00

What does the record list as pEC50 for AD-2639647 (sense mU*mU*mGmGmGmCfAmAfAfGfGmUmGmGmAmAmAmUmGmA*mA*{L373Z513}; antisense {VP}-mU*fU*mCmAmUfUmUfCfCmAmCmCmUfUmUfGmCmCmCmAmA*mG*mU; siRNA) ?
> 8.00

Given AD-2032892: "inhibition of Sod1 mRNA expression in mouse gastrocnemius and quadriceps 21 days after a single 2 mg/kg intravenous dose of AD-2032892" (sense mU*mU*mGmGmGmCfAmAfAfGfGmUmGmGmAmAmAmUmGmA*mA*{L354}; antisense {VP}-mU*fU*mCmAmUfUmUfCfCmAmCmCmUfUmUfGmCmCmCmAmA*mG*mU) , state its recorded pEC50.
> 8.00
